# Test system: prostate cancer (PC-3)
# ASSAY_SUMMARY: Cytotoxicity Assays Method C, PC-3
# Assay type: cell-based
# CONDITION_INFO: 72 h, PC-3, 50% reduction in cell number after 72 hr of incubation; read-out: IC50 PC-3
Lab note: cut-off is 1 µM. Strictly less in IC50 is Yes. Exactly 1 µM or more is No.

Some solved entries appear below for comparison.
INSERT INTO assay_data (compound, label_value) VALUES
  ('CN(C)CCNC(=O)c1cc2c(s1)C(=O)c1ccsc1C2=O [XV-2-H3PO4]', 'Yes'),
  ('O=C(O)COCc1cc2c(s1)C(=O)c1sccc1C2=O [IVa]', 'No');

IN: Is 1 µM strictly greater than the compound's reported IC50? compound: CC(OC(=O)CCC(=O)[O-])c1cc2c(s1)C(=O)c1ccsc1C2=O.[Na+] (stereo not drawn) [VII-1-Na]
OUT: Yes

IN: Lab note: confirm whether the reported IC50 for this compound is below 1 µM, equality not counting. compound: O=C(O)c1cc2c(s1)C(=O)c1ccsc1C2=O [XIV]
OUT: No

IN: Confirm or reject: IC50 of CC(OC(=O)CCCC(=O)[O-])c1cc2c(s1)C(=O)c1sccc1C2=O.[Na+] (stereo not drawn) [IIb-2-Na] lies strictly below 1 µM
OUT: Yes

IN: Please check: IC50 for O=C([O-])CCC(=O)OCc1cc2c(s1)C(=O)c1sccc1C2=O.[Na+] [IIa-1-Na] , strictly under 1 µM or not?
OUT: No

====

# Tested on: Human promyeloid leukemia HL-60 cells
# ASSAY_SUMMARY: Cytotoxicity Assays Method B (MTT proliferation assay), HL-60
# Type: cell-based
# CONDITION_INFO: Homo sapiens, HL-60, 96 h, read-out: IC50 (concentration at which 50% of the cells are inhibited from growing)
molecules and their reported pIC50
Worth noting: pIC50 values are minus log10 of concentrations stated in mol/L.

INSERT INTO measurements (molecule, recorded_result) VALUES
  ('O=C(O)CCC(=O)OCc1cc2c(s1)C(=O)c1sccc1C2=O', 6.33),
  ('CC(OC(=O)CCC(=O)O)c1cc2c(s1)C(=O)c1ccsc1C2=O (stereo not shown)', 6.59),
  ('CC(OC(=O)CCCC(=O)O)c1cc2c(s1)C(=O)c1sccc1C2=O (stereo not shown)', 6.60);

Next molecule, pIC50 to be filled in.
Entry CC(OC(=O)CCC(=O)O)c1cc2c(s1)C(=O)c1sccc1C2=O (stereo not shown) , pIC50 reported as 6.59

====

# System: prostate cancer (PC-3)
# ASSAY_SUMMARY: Cytotoxicity Assays Method C, PC-3
# Format: cell-based
# CONDITION_INFO: 72 h, PC-3, 50% reduction in cell number after 72 hr of incubation; read-out: IC50 PC-3
Attribute: IC50
Please state the figure in nM; there is no need to write the unit.

INSERT INTO measurements (molecule, recorded_result) VALUES
  ('CC(OC(=O)CCCC(=O)[O-])c1cc2c(s1)C(=O)c1ccsc1C2=O.[Na+] (stereo not shown)', 100),
  ('CC(OC(=O)CCC(=O)[O-])c1cc2c(s1)C(=O)c1sccc1C2=O.[Na+] (stereo not shown)', 370);

IC50 in this record for O=C([O-])CCCC(=O)OCc1cc2c(s1)C(=O)c1sccc1C2=O.[Na+] : 890

Lab note: C[C@H](NC(=O)c1cc2c(s1)C(=O)c1ccsc1C2=O)C(=O)[O-].[Na+] gave IC50 of 170

# credit: patent US7332615B2
